- assay: Partition coefficient (logP)
- Format: physicochemical
- measurementSetup: octanol/water; read-out: logP
Listing of recorded logP by entry.
measurementName: logP

# compound, readoutNumber
rows = [
    ("O=C(OCC1CCCCO1)N(Cc1ccccc1)CC(O)CN(Cc1ccccc1)C(=O)OCC1CCCCO1 (stereo not given)", 4.07),
    ("CCOC(=O)N(Cc1ccccc1)CC(O)CN(Cc1ccccc1)C(=O)OCC", 3.99),
    ("O=C(NCc1ccccc1)N(Cc1ccccc1)CC(O)CN(Cc1ccccc1)C(=O)NCc1ccccc1", 5.12),
    ("CN(C(=O)N(Cc1ccccc1)CC(O)CN(Cc1ccccc1)C(=O)N(C)c1ccccc1)c1ccccc1", 7.06),
    ("CC(C)COC(=O)N(Cc1ccccc1)CC(O)CN(Cc1ccccc1)C(=O)OCC(C)C", 5.75),
]

---

Listing of recorded logP by entry.
- assay: Partition coefficient (logP)
- Assay type: physicochemical
- measurementSetup: octanol/water; read-out: logP

# molecule, logP
measured = [
    ("O=C(N1CCOCC1)N(Cc1ccccc1)CC(O)CN(Cc1ccccc1)C(=O)N1CCOCC1", 0.04),
    ("O=C(OCc1ccccc1)N(Cc1ccccc1)CC(O)CN(Cc1ccccc1)C(=O)OCc1ccccc1", 6.48),
    ("O=C(OCC1CCCO1)N(Cc1ccccc1)CC(O)CN(Cc1ccccc1)C(=O)OCC1CCCO1 (stereo unspecified)", 2.94),
    ("CC(C)(C)NC(=O)N(Cc1ccccc1)CC(O)CN(Cc1ccccc1)C(=O)NC(C)(C)C", 4.12),
    ("O=C(OC1CCOC1)N(Cc1ccccc1)CC(O)CN(Cc1ccccc1)C(=O)OC1CCOC1 (stereo unspecified)", 2.48),
    ("CC(C)(C)OC(=O)N(Cc1ccccc1)CC(O)CN(Cc1ccccc1)C(=O)OC(C)(C)C", 5.39),
]
